Reference for the values: paper PMC12416549

Property: apparent Kd (screen); scope: individual binders
Biological target: T1, TNFR1 (Homo sapiens, UniProt P19438)
T1 chain: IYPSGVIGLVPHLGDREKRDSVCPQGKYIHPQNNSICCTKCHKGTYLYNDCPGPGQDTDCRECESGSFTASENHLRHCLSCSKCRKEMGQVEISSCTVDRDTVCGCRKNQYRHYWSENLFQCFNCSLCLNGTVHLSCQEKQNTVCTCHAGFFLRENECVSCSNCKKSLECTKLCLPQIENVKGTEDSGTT
Test: yeast display SC50
Give your result as the value with the unit written after it.

Example results:
| binder | reading |
| --- | --- |
| E29F (designed binder) MTLQELLREEALRRAEAEAFRYALELLAFKFPEQKEYLLDLAEEIESQIRSLSGVDVEDVRKFLDKEWAWVKELLAEHPAELAEVEAARAARLAELRAEVEAKVAA | 653 pM |
| I45M (designed binder) MTLQELLREEALRRAEAEAFRYALELLAEKFPEQKEYLLDLAEEMESQIRSLSGVDVEDVRKFLDKEWAWVKELLAEHPAELAEVEAARAARLAELRAEVEAKVAA | 12500 pM |
| R14S (designed binder) MTLQELLREEALRSAEAEAFRYALELLAEKFPEQKEYLLDLAEEIESQIRSLSGVDVEDVRKFLDKEWAWVKELLAEHPAELAEVEAARAARLAELRAEVEAKVAA | 490 pM |
| A42I (designed binder) MTLQELLREEALRRAEAEAFRYALELLAEKFPEQKEYLLDLIEEIESQIRSLSGVDVEDVRKFLDKEWAWVKELLAEHPAELAEVEAARAARLAELRAEVEAKVAA | 593 pM |
| R13L (designed binder) MTLQELLREEALLRAEAEAFRYALELLAEKFPEQKEYLLDLAEEIESQIRSLSGVDVEDVRKFLDKEWAWVKELLAEHPAELAEVEAARAARLAELRAEVEAKVAA | 490 pM |
| R8T (designed binder) MTLQELLTEEALRRAEAEAFRYALELLAEKFPEQKEYLLDLAEEIESQIRSLSGVDVEDVRKFLDKEWAWVKELLAEHPAELAEVEAARAARLAELRAEVEAKVAA | 790 pM |
| D59G (designed binder) MTLQELLREEALRRAEAEAFRYALELLAEKFPEQKEYLLDLAEEIESQIRSLSGVDVEGVRKFLDKEWAWVKELLAEHPAELAEVEAARAARLAELRAEVEAKVAA | 653 pM |

response.value for E84L (designed binder) MTLQELLREEALRRAEAEAFRYALELLAEKFPEQKEYLLDLAEEIESQIRSLSGVDVEDVRKFLDKEWAWVKELLAEHPAELALVEAARAARLAELRAEVEAKVAA (field: apparent Kd (screen)) = 490 pM
